Ref: PubChem BioAssay

measurementDescription: small-molecule microarray binders of probe aCHRDL2, primary screen, biochemical, biotinylated probe, 635/667 nm fluorescence (AID 1100)
measurementConditions: higher = more signal
endpointLabel: composite z-score
// no unit string in output, number only

# annotated cases, reported composite z-score shown
smilesinput=C[C@@H](ON=C1[C@H]2CCn3c(=O)n(-c4ccccc4)c(=O)n3[C@H]2[C@H](O)[C@@H]2O[C@H]12)c1cn([C@H](CO)Cc2ccccc2)nn1 endpointlabel="composite z-score" observedresult=-0.569
smilesinput=O=C(NN=C1C[C@@H](O)[C@@H](O)[C@@H]2[C@@H]3C(=O)N(Cc4ccc5c(c4)OCO5)C(=O)[C@@H]3CC[C@H]12)OCc1ccccc1 endpointlabel="composite z-score" observedresult=0.298
smilesinput=CC(C)=NO[C@@H](C)c1cc(-c2c(C)cc(C)cc2C)no1 endpointlabel="composite z-score" observedresult=0.0373
smilesinput=CC(C)=NOC[C@@H](O)COCc1ccco1 endpointlabel="composite z-score" observedresult=-0.0658

Prompt: Which composite z-score is listed for "CO[C@H]1COC(=O)[C@H](C)NC(=O)CC=C[C@@H](C)[C@H](OC)COC(=O)CC=C[C@@H]1C" ?
Completion: -1.62
